- Test system: PC-3 prostate
- METHOD: NCI-60 one-dose screen, 48 h (100 = growth as untreated, 0 = no growth, -100 = all killed)
- MEASUREMENT CONDITIONS: 10 µM unless noted
The panel holds about 83,000 compounds, 20% with a hit somewhere; the sample as a whole holds those more often.
We use 30% as the dividing line for growth: on or above the line is satisfied, below is not satisfied.

Would you please look over these solved cases?
O=C1c2ccccc2C(=Cc2ccccc2)c2ccccc21; satisfied
N#Cc1cnc2cc(OC[C@@H](O)CO)c(NC(=O)CC3CSSC3)cc2c1Nc1ccc(OCc2cccc(F)c2)c(Cl)c1; not satisfied

Asked: hey, is growth for this one >= 30%? O=c1c(CNc2ccc(S(=O)(=O)Nc3nccs3)cc2)coc2ccccc12
Given back: satisfied

Asked: hey, is growth for this one >= 30%? N#CC1=C(N)Oc2ccc3ccccc3c2C1c1ccccc1 (stereo not given)
Given back: satisfied

Asked: hey, is growth for this one >= 30%? COc1cc2nc(Cl)nc(Nc3cccc(C(=O)/C=C/c4ccccc4)c3)c2cc1OC
Given back: satisfied
